Assay: Cell viability, CellTiter-Glo
Details: human, Kem I cells

| querySmiles | unitString | viability |
| --- | --- | --- |
| Nc1ncn([C@H]2C[C@H](O)[C@@H](CO)O2)c(=O)n1 | % | 128 |

====

Here, each record is paired with measured fold induction at 2.5 µM data.
Test system: LMP1 expression in Kem I cells
Test: microbe, parasite or virus in culture
Assay type: cell-based, EBV
Settings: human gammaherpesvirus 4, 48 h, read-out: Average LMP1 Fold Increase, Kem I cells, 2.5 uM, 48 hours, average of replicates 1 and 2
Structures can show the parent of a compound that is named as a salt.

| compound | fold induction at 2.5 µM |
| --- | --- |
| C[C@]12C=CC(=O)N[C@@H]1CC[C@@H]1[C@@H]2CC[C@]2(C)[C@@H](C(=O)Nc3cc(C(F)(F)F)ccc3C(F)(F)F)CC[C@@H]12 [Dutasteride] | 0.39 |
| CN[C@H]1CC[C@@H](c2ccc(Cl)c(Cl)c2)c2ccccc21 [Sertraline HCl] | 1.07 |
| CC(=O)O[C@]1(C(C)=O)CC[C@H]2[C@@H]3C=C(Cl)C4=CC(=O)[C@@H]5C[C@@H]5[C@]4(C)[C@H]3CC[C@@]21C [Cyproterone Acetate] | 0.26 |
| CCOc1nc2cccc(C(=O)O)c2n1Cc1ccc(-c2ccccc2-c2nnn[nH]2)cc1 [Candesartan] | 0.43 |
| Nc1nc(OCc2cc(Br)cs2)c2[nH]cnc2n1 [Lomeguatrib] | 1.09 |
| Cc1c(C(=O)NN2CCCCC2)nn(-c2ccc(Cl)cc2Cl)c1-c1ccc(Cl)cc1 [Rimonabant] | 0.39 |
| CC12CC3CC(C)(C1)CC(N)(C3)C2 [Memantine HCl] | 0.42 |
| C[C@H]1COC2=C1C(=O)C(=O)c1c2ccc2c1CCCC2(C)C [Cryptotanshinone] | 0.85 |
| NC(=O)c1ncn([C@@H]2O[C@H](CO)[C@@H](O)[C@H]2O)c1N [Acadesine] | 0.58 |
| O=C(NC(Cc1cc(=O)[nH]c2ccccc12)C(=O)O)c1ccc(Cl)cc1 (stereo not shown) [Rebamipide] | 0.85 |
| Cc1sc2c(c1C)C(c1ccc(Cl)cc1)=N[C@@H](CC(=O)Nc1ccc(O)cc1)c1nnc(C)n1-2 [OTX015] | 0.63 |
| Cc1ccccc1C(=O)Nc1ccc(C(=O)N2CCCC(N(C)C)c3ccccc32)cc1 (stereo not shown) [Mozavaptan] | 0.61 |
| Cc1ccc(S(=O)(=O)NC(=O)NN2CC3CCCC3C2)cc1 (stereo not shown) [Gliclazide] | 0.73 |

Data provenance is patent US20230053688A1.
